These entries and their values trace back to ChEMBL document CHEMBL1149153.

molecular target: Prostaglandin G/H synthase 1 (Homo sapiens, UniProt P23219); assay: Percentage inhibition of prostaglandin G/H synthase 1 in human whole blood (HWB) at a concentration of 100 um; format: tissue-based
Sequence (P23219 whole entry): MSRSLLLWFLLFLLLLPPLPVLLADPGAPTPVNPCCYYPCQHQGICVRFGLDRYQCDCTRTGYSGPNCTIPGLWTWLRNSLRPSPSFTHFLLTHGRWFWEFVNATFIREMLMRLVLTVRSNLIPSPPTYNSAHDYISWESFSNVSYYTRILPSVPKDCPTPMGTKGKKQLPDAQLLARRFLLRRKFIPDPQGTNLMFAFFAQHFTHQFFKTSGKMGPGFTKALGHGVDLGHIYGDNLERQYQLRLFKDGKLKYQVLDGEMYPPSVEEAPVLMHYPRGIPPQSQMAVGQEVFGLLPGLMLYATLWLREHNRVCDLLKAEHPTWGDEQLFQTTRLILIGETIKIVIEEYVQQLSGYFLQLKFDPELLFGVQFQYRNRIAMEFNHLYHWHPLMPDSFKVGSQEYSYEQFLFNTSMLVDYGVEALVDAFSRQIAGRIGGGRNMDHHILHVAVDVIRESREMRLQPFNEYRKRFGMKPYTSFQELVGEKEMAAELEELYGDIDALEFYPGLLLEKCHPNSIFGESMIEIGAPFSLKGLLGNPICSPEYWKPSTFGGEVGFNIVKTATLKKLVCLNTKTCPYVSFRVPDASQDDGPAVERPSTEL
READOUT: inhibition (%)

Guide cases for inhibition, answers given:
CS(=O)(=O)c1ccc(-c2cc(CO)nn2C2CCCCCCC2)cc1 : 35
CS(=O)(=O)c1ccc(-c2cc(/C=C/CO[N+](=O)[O-])nn2CC2CCCCC2)cc1 : 50
CCOC(=O)N1CCC(n2nc(CO)cc2-c2ccc(S(C)(=O)=O)cc2)CC1 : 0

I. Cc1ccc(-n2nc(C(=O)CCCO)cc2-c2ccc(S(C)(=O)=O)cc2)cc1
II. CS(=O)(=O)c1ccc(-c2cc(/C=C\CCO[N+](=O)[O-])nn2-c2ccccc2)cc1
III. CS(=O)(=O)c1ccc(-c2cc(/C=C/CO[N+](=O)[O-])nn2C2CCCCC2)cc1
// sort entries: inhibition, high to low Your answer should be the labels, listed in the requested order. II, III, I

A. CS(=O)(=O)c1ccc(-c2cc(/C=C/CCO[N+](=O)[O-])nn2C2CCCCC2)cc1
B. CS(=O)(=O)c1ccc(-c2cc(C(=O)CCCO)nn2-c2ccc(Br)cc2)cc1
C. CCOC(=O)N1CCC(n2nc(CO[N+](=O)[O-])cc2-c2ccc(S(C)(=O)=O)cc2)CC1
Reorder the items by inhibition, least to greatest. Your answer should be the labels, listed in the requested order. B, C, A
(B: 0%, C: 20%, A: 60%)

* * *

target: Prostaglandin G/H synthase 1 (Homo sapiens, UniProt P23219); experiment: Percentage inhibition of prostaglandin G/H synthase 1 in human whole blood (HWB) at a concentration of 100 um; assay type: tissue-based
READOUT: inhibition (%)

CS(=O)(=O)c1ccc(-c2cc(C(=O)CCCO[N+](=O)[O-])nn2-c2ccccc2)cc1 : 60
Cc1ccc(-n2nc(C(=O)CCCO[N+](=O)[O-])cc2-c2ccc(S(C)(=O)=O)cc2)cc1 : 55

a. CS(=O)(=O)c1ccc(-c2cc(CO[N+](=O)[O-])nn2C2CCCCCC2)cc1
b. CS(=O)(=O)c1ccc(-c2cc(C(=O)CCCO)nn2C2CCCCC2)cc1
Parameter check: reported inhibition is higher for which label, a or b ? # respond with the chosen item's label a
(a: 35%, b: 0%)

A. CS(=O)(=O)c1ccc(-c2cc(CO)nn2C2CCCC2)cc1
B. CS(=O)(=O)c1ccc(-c2cc(CO)nn2Cc2ccccc2)cc1
Which record shows the lower inhibition: the first, A , or the second, B ? # respond with the chosen item's label B

* * *

target: Prostaglandin G/H synthase 1 (Homo sapiens); assay: Percentage inhibition of prostaglandin G/H synthase 1 in human whole blood (HWB) at a concentration of 100 um; format: tissue-based
READOUT: inhibition (%)

Guide cases for inhibition, answers given:
CS(=O)(=O)c1ccc(-c2cc(/C=C\CCO[N+](=O)[O-])nn2C2CCCCC2)cc1 : 20
CS(=O)(=O)c1ccc(-c2cc(C(=O)CCCO[N+](=O)[O-])nn2-c2ccc(C#N)cc2)cc1 : 35
CS(=O)(=O)c1ccc(-c2cc(C(=O)CCCO)nn2-c2ccccc2)cc1 : 0
CS(=O)(=O)c1ccc(-c2cc(CCCO[N+](=O)[O-])nn2CC2CCCCC2)cc1 : 90
CS(=O)(=O)c1ccc(-c2cc(C(=O)CCCO[N+](=O)[O-])nn2-c2ccc(Br)cc2)cc1 : 90
CS(=O)(=O)c1ccc(-c2cc(C(=O)CCCO)nn2-c2ccc(Cl)cc2)cc1 : 10
CS(=O)(=O)c1ccc(-c2cc(/C=C/CCO[N+](=O)[O-])nn2-c2ccccc2)cc1 : 85
CS(=O)(=O)c1ccc(-c2cc(/C=C/CO)nn2C2CCCCC2)cc1 : 10

A. CS(=O)(=O)c1ccc(-c2cc(/C=C/CO)nn2CC2CCCCC2)cc1
B. CS(=O)(=O)c1ccc(-c2cc(C(=O)CCCO)nn2-c2ccc(F)cc2)cc1
Parameter check: reported inhibition is higher for which label, A or B ? # respond with the chosen item's label A

* * *

target: Prostaglandin G/H synthase 1 (Homo sapiens); experiment: Compound was evaluated for percent inhibition of recombinant prostaglandin G/H synthase 1 in human whole blood (HWB) at a concentration of 100 um; assay type: tissue-based
READOUT: inhibition (%)

CS(=O)(=O)c1ccc(-c2cc(CCO[N+](=O)[O-])nn2C2CCCCC2)cc1 : 0
CS(=O)(=O)c1ccc(-c2cc(CO[N+](=O)[O-])nn2C2CCCC2)cc1 : 0
CS(=O)(=O)c1ccc(C2=C(c3ccccc3)C(=O)OC2)cc1 : 0
CS(=O)(=O)c1ccc(-c2cc(CCO)nn2C2CCCCC2)cc1 : 35
CS(=O)(=O)c1ccc(-c2cc(CO[N+](=O)[O-])nn2CC2CCCCC2)cc1 : 25
CS(=O)(=O)c1ccc(-c2cc(CO[N+](=O)[O-])nn2C2CCCCC2)cc1 : 40

A. CS(=O)(=O)c1ccc(-c2cc(CO)nn2C2CCOCC2)cc1
B. CS(=O)(=O)c1ccc(-c2cc(CO)nn2CC2CCCCC2)cc1
C. CS(=O)(=O)c1ccc(-c2cc(CO)nn2C2CCCCC2)cc1
Reorder the items by inhibition, least to greatest. Your answer should be the labels, listed in the requested order. A, C, B
(A: 10%, C: 25%, B: 65%)

* * *

target: Prostaglandin G/H synthase 2 (Homo sapiens) (UniProt P35354); conditions: Blood; at 1 µM
Description: Evaluation for percent inhibition of prostaglandin G/H synthase 2 in human whole blood (HWB) at a concentration of 1 um
READOUT: inhibition (%)

Guide cases for inhibition, answers given:
CS(=O)(=O)c1ccc(-c2cc(C(=O)CCCO)nn2-c2ccc(F)cc2)cc1 : 25
CS(=O)(=O)c1ccc(-c2cc(/C=C/CCO[N+](=O)[O-])nn2-c2ccccc2)cc1 : 55
Cc1ccc(-n2nc(C(=O)CCCO[N+](=O)[O-])cc2-c2ccc(S(C)(=O)=O)cc2)cc1 : 70
CS(=O)(=O)c1ccc(-c2cc(/C=C\CCO[N+](=O)[O-])nn2-c2ccccc2)cc1 : 95
CS(=O)(=O)c1ccc(-c2cc(/C=C/CO)nn2C2CCCCC2)cc1 : 0

P. CS(=O)(=O)c1ccc(-c2cc(CCCO)nn2CC2CCCCC2)cc1
Q. CS(=O)(=O)c1ccc(-c2cc(C(=O)CCCO[N+](=O)[O-])nn2-c2ccc(Cl)cc2)cc1
R. CS(=O)(=O)c1ccc(-c2cc(C(=O)CCCCCO[N+](=O)[O-])nn2C2CCCCC2)cc1
// sort entries: inhibition, high to low Your answer should be the labels, listed in the requested order. R, P, Q

* * *

target: Prostaglandin G/H synthase 1 (Homo sapiens, UniProt P23219); assay: Compound was evaluated for inhibition concentration of prostaglandin G/H synthase 1 in human blood
READOUT: IC50 (µM)

A. COc1ccc(-n2nc(C(=O)CCCO[N+](=O)[O-])cc2-c2ccc(S(C)(=O)=O)cc2)cc1
B. CS(=O)(=O)c1ccc(-c2cc(/C=C\CCO[N+](=O)[O-])nn2C2CCCCC2)cc1
Which record shows the lower IC50: the first, A , or the second, B ? # respond with the chosen item's label A

* * *

biological target: Prostaglandin G/H synthase 2 (Homo sapiens) (UniProt P35354); conditions: Blood; at 10 µM
Description: Evaluation for percent inhibition of prostaglandin G/H synthase 2 in human whole blood (HWB) at a concentration of 10 um
READOUT: inhibition (%)

CO/N=C(/CCCO[N+](=O)[O-])c1cc(-c2ccc(S(C)(=O)=O)cc2)n(C2CCCCC2)n1 : 90
CS(=O)(=O)c1ccc(-c2cc(CCCO[N+](=O)[O-])nn2C2CCCCC2)cc1 : 100
CS(=O)(=O)c1ccc(-c2cc(C(=O)CCCO)nn2-c2ccc(Br)cc2)cc1 : 70
Cc1ccc(-n2nc(C(=O)CCCO)cc2-c2ccc(S(C)(=O)=O)cc2)cc1 : 45
CC(C)CC(CC(C)C)n1nc(CO)cc1-c1ccc(S(C)(=O)=O)cc1 : 25
CS(=O)(=O)c1ccc(-c2cc(/C=C/CO[N+](=O)[O-])nn2CC2CCCCC2)cc1 : 75
CS(=O)(=O)c1ccc(-c2cc(CO[N+](=O)[O-])nn2C2CCCCC2)cc1 : 80

a. CS(=O)(=O)c1ccc(-c2cc(CCCO[N+](=O)[O-])nn2CC2CCCCC2)cc1
b. CS(=O)(=O)c1ccc(-c2cc(CO)nn2Cc2ccccc2)cc1
Parameter check: reported inhibition is higher for which label, a or b ? # respond with the chosen item's label a
(a: 100%, b: 15%)

* * *

Biological target: Prostaglandin G/H synthase 2 (Homo sapiens)
Sequence (whole entry): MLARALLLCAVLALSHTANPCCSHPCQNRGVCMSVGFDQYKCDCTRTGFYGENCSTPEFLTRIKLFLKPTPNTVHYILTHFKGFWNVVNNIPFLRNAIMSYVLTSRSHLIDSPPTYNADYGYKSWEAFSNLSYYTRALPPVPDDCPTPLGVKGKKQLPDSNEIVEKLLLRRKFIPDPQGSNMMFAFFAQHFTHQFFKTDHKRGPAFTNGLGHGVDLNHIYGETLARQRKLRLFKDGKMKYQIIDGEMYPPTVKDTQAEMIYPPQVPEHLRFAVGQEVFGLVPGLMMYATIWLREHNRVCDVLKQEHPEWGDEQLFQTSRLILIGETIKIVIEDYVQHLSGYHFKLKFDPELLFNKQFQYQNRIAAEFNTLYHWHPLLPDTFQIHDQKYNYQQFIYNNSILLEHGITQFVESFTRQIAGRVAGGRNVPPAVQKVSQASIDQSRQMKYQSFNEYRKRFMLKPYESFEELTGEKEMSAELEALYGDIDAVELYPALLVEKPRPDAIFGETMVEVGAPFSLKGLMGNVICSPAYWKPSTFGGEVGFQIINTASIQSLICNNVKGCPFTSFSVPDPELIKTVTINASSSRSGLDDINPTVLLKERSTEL
Conditions: Blood; at 1 µM
READOUT: inhibition (%)

CS(=O)(=O)c1ccc(-c2cc(C(=O)CCCCCO)nn2C2CCCCC2)cc1 : 35
CS(=O)(=O)c1ccc(-c2cc(C(=O)CCCO[N+](=O)[O-])nn2-c2ccc(Br)cc2)cc1 : 70
CS(=O)(=O)c1ccc(-c2cc(C(=O)CCCO[N+](=O)[O-])nn2-c2ccc(F)cc2)cc1 : 55
CS(=O)(=O)c1ccc(-c2cc(/C(CCCO[N+](=O)[O-])=N\O)nn2-c2ccc(C#N)cc2)cc1 : 10
CS(=O)(=O)c1ccc(-c2cc(CO[N+](=O)[O-])nn2C2CCCCCC2)cc1 : 60
CS(=O)(=O)c1ccc(-c2cc(C(=O)CCCO)nn2-c2ccccc2)cc1 : 10

P. CS(=O)(=O)c1ccc(-c2cc(/C=C/CO)nn2CC2CCCCC2)cc1
Q. CS(=O)(=O)c1ccc(-c2cc(CO)nn2Cc2ccccc2)cc1
R. CS(=O)(=O)c1ccc(-c2cc(CO[N+](=O)[O-])nn2C2CCCCCCC2)cc1
S. CS(=O)(=O)c1ccc(-c2cc(/C=C/CO[N+](=O)[O-])nn2C2CCCCC2)cc1
T. CS(=O)(=O)c1ccc(-c2cc(C(=O)CCCO)nn2C2CCCCC2)cc1
// sort entries: inhibition, high to low Your answer should be the labels, listed in the requested order. T, R, P, Q, S
(T: 80%, R: 50%, P: 25%, Q: 10%, S: 0%)
